Reported values of EC50 for individual entries
Target: human dOR (Homo sapiens (Human), UniProt P41143)
Sequence (P41143 whole entry): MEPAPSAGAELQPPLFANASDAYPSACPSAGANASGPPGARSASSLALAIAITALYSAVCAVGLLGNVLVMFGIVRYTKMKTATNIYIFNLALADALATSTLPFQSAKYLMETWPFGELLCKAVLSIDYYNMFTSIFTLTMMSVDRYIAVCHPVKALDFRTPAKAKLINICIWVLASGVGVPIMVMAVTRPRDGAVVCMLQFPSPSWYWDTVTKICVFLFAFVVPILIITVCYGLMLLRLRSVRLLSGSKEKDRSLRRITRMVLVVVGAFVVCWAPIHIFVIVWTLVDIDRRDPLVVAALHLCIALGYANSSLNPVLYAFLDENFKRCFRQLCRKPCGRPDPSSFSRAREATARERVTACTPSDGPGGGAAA
Test: cell-based
Settings: dOR cAMP Agonist Assay EC50, CHO Tag-lite human dOR stable cell line; forskolin
Method: CHO Tag-lite human mOR stable cell line from Cisbio (NCBI accession number: NM_000914.3, Bedford, Mass.) were seeded and grown to approximately 80% confluence in Ham F-12 with 10% FBS, 50 U/ml penicillin, 50 μg/ml streptomycin, 2 mM Hepes, and 1 mg/ml geneticin (Invitrogen, Carlsbad, Calif.). […] Following incubation, plates were read in a Synergy Neo2 multi-mode reader (Biotek, Winooski, Vt.). […]

Example molecules with recorded EC50:
| entry-smiles | EC50 |
| --- | --- |
| CN(C)[C@H](CNC(=O)C[C@H](c1ccccc1)C1(C(F)(F)F)CC1)Cc1ccc(C(N)=O)c(F)c1 | > 3000 nM |
| CC(C)C[C@@H](CC(=O)NC[C@H](Cc1ccc(C(N)=O)cc1)N(C)C)c1ccccc1 | < 300 nM |
| CN(C)[C@H](CNC(=O)C[C@@H](c1ccccc1)C1CC1)Cc1ccc(C(N)=O)cc1 | < 300 nM |
| CN(C)[C@H](CNC(=O)C[C@H](c1ccccc1)C1(C(F)(F)F)CC1)Cc1ccc(C(N)=O)cc1 | < 300 nM |
| CNC(=O)c1ccc(C[C@@H](CNC(=O)C[C@H](c2cc(F)cc(F)c2)C2(C(F)(F)F)CC2)N(C)C)c(C)c1 | 300 to 3000 nM |

Notebook entry, human dOR (Homo sapiens (Human), UniProt P41143) assay: EC50 of CNC(=O)c1ccc(C[C@@H](CNC(=O)C[C@@H](c2ccccc2)C(C)(C)C)N(C)C)cc1F = ?
300 to 3000 nM

Requested read-out EC50, target or system human dOR (Homo sapiens (Human), UniProt P41143), entry CN(C)[C@H](CNC(=O)C[C@H](c1ccccc1)C1CC1)Cc1ccc(O)cc1Cl
< 300 nM

----------
Molecular target: human mOR (Homo sapiens (Human), UniProt P35372)
Sequence (P35372 whole entry): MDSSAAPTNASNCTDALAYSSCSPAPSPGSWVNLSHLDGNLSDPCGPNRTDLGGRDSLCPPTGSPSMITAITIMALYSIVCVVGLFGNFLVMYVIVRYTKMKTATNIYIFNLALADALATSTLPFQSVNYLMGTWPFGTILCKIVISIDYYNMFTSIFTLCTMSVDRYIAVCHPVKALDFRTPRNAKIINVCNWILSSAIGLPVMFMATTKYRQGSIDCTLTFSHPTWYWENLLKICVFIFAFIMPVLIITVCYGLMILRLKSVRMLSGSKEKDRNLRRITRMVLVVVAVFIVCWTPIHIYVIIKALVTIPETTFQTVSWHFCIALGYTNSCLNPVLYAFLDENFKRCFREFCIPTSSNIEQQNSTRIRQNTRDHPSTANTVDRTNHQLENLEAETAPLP
Test: cell-based
Procedure: CHO Tag-lite human mOR stable cell line from Cisbio (NCBI accession number: NM_000914.3, Bedford, Mass.) were seeded and grown to approximately 80% confluence in Ham F-12 with 10% FBS, 50 U/ml penicillin, 50 μg/ml streptomycin, 2 mM Hepes, and 1 mg/ml geneticin (Invitrogen, Carlsbad, Calif.). […] Following incubation, plates were read in a Synergy Neo2 multi-mode reader (Biotek, Winooski, Vt.). […]
Catalogue of molecules with associated IC50

Guide cases for IC50, answers given:
| molecule | assayed-system | measured |
| --- | --- | --- |
| CN(C)[C@H](CNC(=O)C[C@H](CC1CC1)c1ccncc1)Cc1ccc(C(N)=O)c(F)c1 [Compound 62] | human mOR (Homo sapiens (Human), UniProt P35372) | < 0.3 µM |
| Cc1c(C[C@@H](CNC(=O)C[C@H](c2cccnc2)C2(C(F)(F)F)CC2)N(C)C)ccc2c1CC(=O)N2 [Compound 180] | human mOR (Homo sapiens (Human), UniProt P35372) | < 0.3 µM |
| CN(C)[C@H](CNC(=O)CC(c1cccnc1)C1(C(F)(F)F)CC1)Cc1ccc(C(N)=O)c(F)c1 (stereo partly drawn) [Compound 74] | human mOR (Homo sapiens (Human), UniProt P35372) | > 3 µM |

Which measured IC50 belongs to CN(C)[C@H](CNC(=O)C[C@H](c1cccnc1)C1(C(F)(F)F)CC1)Cc1ccc(O)cc1 [Compound 306] , tested on human mOR (Homo sapiens (Human), UniProt P35372)?
< 0.3 µM

human mOR (Homo sapiens (Human), UniProt P35372) / IC50 / CC(C)[C@H](CC(=O)NC[C@H](Cc1ccc(C(N)=O)cc1)N(C)C)c1ccccc1 [Compound 94] : value?
< 0.3 µM

Please tell me: IC50 of Cc1ncc([C@@H](CC(=O)NC[C@H](Cc2ccc(C(N)=O)c(F)c2)N(C)C)C2CC2)cn1 [Compound 67] , system human mOR (Homo sapiens (Human), UniProt P35372)?
> 3 µM

Form: Entry = CNC(=O)c1ccc(C[C@@H](CNC(=O)C[C@@H](c2ccccn2)C2(C(F)(F)F)CC2)N(C)C)cc1F [Compound 153] | System = human mOR (Homo sapiens (Human), UniProt P35372) | IC50 = ____
> 3 µM

# returns recorded IC50 (system: human mOR (Homo sapiens (Human), UniProt P35372)) for Cc1ccc([C@@H](CC(=O)NC[C@H](Cc2cc(F)c(C(N)=O)c(F)c2)N(C)C)C2(C(F)(F)F)CC2)cn1 [Compound 47]
< 0.3 µM

Reported IC50 for human mOR (Homo sapiens (Human), UniProt P35372), given CN(C)[C@H](CNC(=O)C[C@@H](c1ncc(Cl)cn1)C1(C(F)(F)F)CC1)Cc1cc(F)c(C(N)=O)cc1F [Compound 5] ?
0.3 to 3 µM

# query: IC50 | item CN(C)[C@H](CNC(=O)CC(c1ncc(Cl)cn1)C1(C(F)(F)F)CC1)Cc1ccc(C(N)=O)c(F)c1 (stereo partly drawn) [Compound 73] | system: human mOR (Homo sapiens (Human), UniProt P35372)
< 0.3 µM

----------
Reported values of IC50 for individual entries
Molecular target: human mOR (Homo sapiens (Human), UniProt P35372)
Test: cell-based

Example cases with answers are listed next.
| compound | assayed-system | IC50 |
| --- | --- | --- |
| CNC(=O)c1ccc(C[C@@H](CNC(=O)C[C@H](c2cc(F)cc(F)c2)C2(C(F)(F)F)CC2)N(C)C)c(C)c1 | human mOR (Homo sapiens (Human), UniProt P35372) | < 300 nM |
| CNC(=O)c1ccc(C[C@@H](CNC(=O)C[C@H](c2ccccc2)C(C)(C)C)N(C)C)cc1F | human mOR (Homo sapiens (Human), UniProt P35372) | < 300 nM |
| Cc1cc(C(N)=O)cc(C)c1C[C@@H](CNC(=O)C[C@@H](c1ccccc1)C(C)C)N(C)C | human mOR (Homo sapiens (Human), UniProt P35372) | < 300 nM |
| CN(C)[C@H](CNC(=O)C[C@H](c1ccncc1)C1(C(F)(F)F)CC1)Cc1ccc2[nH]ncc2c1 | human mOR (Homo sapiens (Human), UniProt P35372) | < 300 nM |
| CN(C)[C@H](CNC(=O)CC(c1cncnc1)C1(C(F)(F)F)CC1)Cc1ccc(C(N)=O)cc1Cl (stereo partly shown) | human mOR (Homo sapiens (Human), UniProt P35372) | < 300 nM |

What measured IC50 is associated with Cc1cc(O)cc(C)c1C[C@@H](CNC(=O)C[C@H](c1cncc(Cl)c1)C1(C(F)(F)F)CC1)N(C)C on human mOR (Homo sapiens (Human), UniProt P35372)?
< 300 nM

// lookup IC50 | system=human mOR (Homo sapiens (Human), UniProt P35372) | key= Cc1ncc([C@@H](CC(=O)NC[C@H](Cc2ccc(C(N)=O)c(F)c2C)N(C)C)C2CC2)cn1
> 3000 nM

----------
Target: human mOR (Homo sapiens (Human), UniProt P35372)
Assay: cell-based
Conditions: CHO Tag-lite human mOR stable cell line; forskolin 4 μM and DAMGO at EC90; read-out: mOR cAMP Antagonist Assay IC50
endpoint-name: IC50

| molecule | assayed-system | IC50 |
| --- | --- | --- |
| C[C@@H](CC(=O)NC[C@H](Cc1ccc2[nH]ncc2c1)N(C)C)c1ccccn1 [Compound 216] | human mOR (Homo sapiens (Human), UniProt P35372) | < 300 nM |

Fill in the blank: the reported IC50 of CN(C)[C@H](CNC(=O)C[C@H](c1cncs1)C1(C(F)(F)F)CC1)Cc1ccc(C(N)=O)c(F)c1F [Compound 2] is ____.
< 300 nM

Requested read-out: IC50. Entry: Cc1ccc([C@@H](C)CC(=O)NC[C@H](Cc2ccc3[nH]ncc3c2)N(C)C)cc1 [Compound 217]
< 300 nM

----------
Biological target: UniProt P41143
Test: cell-based
Details: dOR cAMP Agonist Assay EC50, CHO Tag-lite human dOR stable cell line; forskolin
Below, each entry is listed alongside its reported EC50.

Need EC50 of CC(C)[C@@H](CC(=O)NC[C@H](Cc1ccc2[nH]ncc2c1)N(C)C)c1ccccc1 , thanks.
300 to 3000 nM

Form field: reported EC50 of Cc1cc(C(N)=O)cc(C)c1C[C@@H](CNC(=O)C[C@H](CC(C)C)c1ccccc1)N(C)C
> 3000 nM

----------
Molecular target: human mOR (Homo sapiens (Human), UniProt P35372)
Assay: cell-based
Catalogue of molecules with associated IC50

| entry-smiles | assayed-system | measured |
| --- | --- | --- |
| CN(C)[C@H](CNC(=O)C[C@@H](c1ccccc1)C1CC1)Cc1ccc(O)cc1 | human mOR (Homo sapiens (Human), UniProt P35372) | < 0.3 µM |
| CNC(=O)c1cc(C)c(C[C@@H](CNC(=O)C[C@H](c2ccccc2)C2(C(F)(F)F)CC2)N(C)C)cc1F | human mOR (Homo sapiens (Human), UniProt P35372) | > 3 µM |
| CN(C)[C@H](CNC(=O)CC(C)(C)c1ccccc1)Cc1ccc2[nH]ncc2c1 | human mOR (Homo sapiens (Human), UniProt P35372) | < 0.3 µM |

Now for another entry.
Enter reported IC50 observed with human mOR (Homo sapiens (Human), UniProt P35372) for CNC(=O)c1ccc(C[C@@H](CNC(=O)C[C@@H](CC(C)C)c2cccnc2)N(C)C)c(C)c1
> 3 µM
